tested on: Puccinia recondita; experiment: Fungicidal activity against Puccinia recondita spores inoculated on leaves of compound pre-treated 1.5 leaf-stage wheat plants assessed as wheat brown rust disease control level at 25 ppm measured after 8 days post fungal inoculation; format: functional
reported.endpoint: Activity

- CC(C)CC(C)c1sccc1NC(=O)c1cn(C)nc1C(F)F (configuration not stated): >=95%
- CCC(CC)c1sccc1NC(=O)c1cn(C)nc1C(F)(F)F: >=50%
- CCCCCC(C)c1sccc1NC(=O)c1cn(C)nc1C(F)(F)F (configuration not stated): >=95%
- CCCCC(C)c1sccc1NC(=O)c1cn(C)nc1C(F)(F)F (configuration not stated): >=95%
- CC(C)CC(C)c1sccc1NC(=O)c1ccccc1Cl (configuration not stated): >=95%
- CC(C)CC(C)c1sccc1NC(=O)c1nccnc1Cl (configuration not stated): >=95%
- CC(CC(C)(C)C)c1sccc1NC(=O)c1cn(C)nc1C(F)(F)F (configuration not stated): >=95%
- Cc1occc1C(=O)Nc1ccsc1C(C)CC(C)C (configuration not stated): >=95%
- CCC(C)c1ccccc1NC(=O)c1cn(C)nc1C(F)(F)F (configuration not stated): >=95%
- CC1=C(C(=O)Nc2ccsc2C(C)CC(C)C)CCCO1 (configuration not stated): >=95%
- CC(C)CCc1sccc1NC(=O)c1cn(C)nc1C(F)(F)F: >=95%
- CC(C)CCC(C)c1sccc1NC(=O)c1cn(C)nc1C(F)(F)F (configuration not stated): >=95%

###

test system: Pyricularia grisea; assay: Fungicidal activity against Magnaporthe grisea spores inoculated on leaves of compound pre-treated 2 or 3 leaf-stage rice plants assessed as rice blast disease control level at 250 ppm measured after 7 days post fungal inoculation; type: functional
reported.endpoint: Activity

- CC1=C(C(=O)Nc2ccccc2-c2ccccc2)CCCO1: <95%
- O=C(Nc1ccccc1-c1ccccc1)c1nccnc1Cl: <95%
- CC(C)c1sccc1NC(=O)c1cn(C)nc1C(F)(F)F: <95%
- CCC(CC)c1sccc1NC(=O)c1cn(C)nc1C(F)(F)F: <95%
- CC(C)CCC(C)c1sccc1NC(=O)c1cn(C)nc1C(F)(F)F (stereo unspecified): >=95%
- Cc1occc1C(=O)Nc1ccccc1-c1ccccc1: >=95%

###

system: Pyricularia grisea; assay: Fungicidal activity against Magnaporthe grisea spores inoculated on leaves of compound pre-treated 2 or 3 leaf-stage rice plants assessed as rice blast disease control level at 250 ppm measured after 7 days post fungal inoculation; type: functional
reported.endpoint: Activity

- Cc1nn(C)cc1C(=O)Nc1ccccc1-c1ccccc1: <95%
- Cc1nc(Cl)c(C(=O)Nc2ccccc2-c2ccccc2)s1: <95%
- CC1=C(C(=O)Nc2ccccc2-c2ccccc2)SCCO1: <95%
- CC(C)CC(C)c1sccc1NC(=O)c1ccccc1Cl (configuration not stated): <95%
- Cc1nc(C(F)(F)F)c(C(=O)Nc2ccccc2-c2ccccc2)s1: >=95%
- CC1CC(C)(C)c2cccc(NC(=O)c3cn(C)nc3C(F)(F)F)c21 (configuration not stated): <95%
- CCC(C)c1sccc1NC(=O)c1cn(C)nc1C(F)(F)F (configuration not stated): <95%
- CC1=C(C(=O)Nc2ccsc2C(C)CC(C)C)SCCO1 (configuration not stated): >=95%
- O=C(Nc1ccccc1-c1ccccc1)c1cccnc1Cl: <95%
- CCCC(C)c1sccc1NC(=O)c1cn(C)nc1C(F)(F)F (configuration not stated): <95%
- CCC(C)c1ccccc1NC(=O)c1cn(C)nc1C(F)(F)F (configuration not stated): <95%
- CC(C)c1ccccc1NC(=O)c1cn(C)nc1C(F)(F)F: <95%

###

system: Pyricularia grisea; assay: Fungicidal activity against Magnaporthe grisea spores inoculated on leaves of compound pre-treated 2 or 3 leaf-stage rice plants assessed as rice blast disease control level at 250 ppm measured after 7 days post fungal inoculation; format: functional
reported.endpoint: Activity

* CC1CC(C)(C)c2cccc(NC(=O)c3cccnc3Cl)c21 (configuration not stated) | <95%
* Cc1nc(C)c(C(=O)Nc2ccccc2-c2ccccc2)s1 | <95%
* CC(CC(C)(C)C)c1sccc1NC(=O)c1cn(C)nc1C(F)(F)F (configuration not stated) | <95%
* CCCCCC(C)c1sccc1NC(=O)c1cn(C)nc1C(F)(F)F (configuration not stated) | <95%
* Cc1ccsc1C(=O)Nc1ccccc1-c1ccccc1 | <95%
* CC(C)CC(C)c1sccc1NC(=O)c1nccnc1Cl (configuration not stated) | >=95%
* Cc1nc(C(F)F)c(C(=O)Nc2ccccc2-c2ccccc2)s1 | >=95%
* O=C(Nc1ccccc1-c1ccccc1)c1ccccc1Cl | <95%
* Cn1cc(C(=O)Nc2ccccc2-c2ccccc2)c(Cl)n1 | <95%
* CCCCC(C)c1sccc1NC(=O)c1cn(C)nc1C(F)(F)F (configuration not stated) | >=95%
* Cn1cc(C(=O)Nc2ccsc2-c2ccccc2)c(C(F)(F)F)n1 | <95%
* Cn1cc(C(=O)Nc2ccccc2-c2ccccc2)c(C(F)(F)F)n1 | <95%
